Target system: PaHBDH (Psychrobacter arcticus, UniProt Q4FRT2)
Sequence (Q4FRT2 entry or part of it): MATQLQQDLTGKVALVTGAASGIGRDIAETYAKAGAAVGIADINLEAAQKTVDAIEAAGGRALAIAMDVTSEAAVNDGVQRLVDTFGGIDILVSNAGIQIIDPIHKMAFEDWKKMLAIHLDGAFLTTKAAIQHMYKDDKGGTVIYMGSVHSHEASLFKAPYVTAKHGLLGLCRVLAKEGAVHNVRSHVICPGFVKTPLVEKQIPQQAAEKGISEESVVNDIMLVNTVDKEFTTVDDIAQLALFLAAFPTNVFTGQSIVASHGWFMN
Assay readout: Kd (µM)
Please state the figure in µM; there is no need to write the unit.

Summary line: NC(=O)C1=CN([C@@H]2O[C@H](COP(=O)(O)OP(=O)(O)OC[C@H]3O[C@@H](n4cnc5c(N)ncnc54)[C@H](O)[C@@H]3O)[C@@H](O)[C@H]2O)C=CC1 [NADH] , PaHBDH (Psychrobacter arcticus, UniProt Q4FRT2), reported Kd = 7
